Recorded values, source PubChem BioAssay (NCI).

Test system: SF-268 CNS
Experiment: NCI tumour cell line growth inhibition, 48 h

>  <COMPOUND>
Cc1ccc(N2C(=O)C(=O)N(/N=C3\C(=O)Nc4ccccc43)C2=S)cc1

>  <TGI>
> 100 µM

$$$$
>  <COMPOUND>
Cc1cc(Cl)ccc1NC(=O)C(=O)Cc1occc(=O)c1O

>  <TGI>
> 100 µM

$$$$
>  <COMPOUND>
COC1C(O)C(C)OC(O[C@@H]2C[C@H]3CC[C@@H]4[C@H](CC[C@]5(C)[C@@H](C6=CC(=O)OC6)CC[C@]45O)[C@@]3(C)[C@H](O)C2)C1O (some centres not stated)

>  <TGI>
0.171 µM

$$$$
>  <COMPOUND>
Cc1ccc(-n2cc(-c3ccc(Cl)cc3)c(C#N)c2N)cc1

>  <TGI>
42.3 µM

$$$$
>  <COMPOUND>
O=C1c2ccccc2C(=O)c2c(O)c(NCCNCCO)cc(O)c21

>  <TGI>
15.5 µM

$$$$
>  <COMPOUND>
COC1C(OC(N)=O)C(O)C(Oc2ccc3c(O)c(NC(=O)c4ccc(O)c(CC=C(C)C)c4)c(=O)oc3c2C)OC1(C)C (configuration not stated)

>  <TGI>
> 100 µM

$$$$
>  <COMPOUND>
Clc1ccc(/C=C/c2nc(Cl)c(-c3ccc(Cl)cc3)c(Cl)n2)cc1

>  <TGI>
> 100 µM

$$$$
>  <COMPOUND>
Cc1ccccc1NC(=O)c1cc2ccccc2cc1O

>  <TGI>
> 100 µM

$$$$
>  <COMPOUND>
NS(=O)(=O)c1ccc(N2N=C(c3cccs3)CC2c2ccccc2O)cc1 (configuration not stated)

>  <TGI>
4.48 µM

$$$$
>  <COMPOUND>
CC1=C(C)C(=O)C(C2=C(C3=CC(=O)C(C)=C(C)C3=O)C(=O)c3ccccc3C2=O)=CC1=O

>  <TGI>
17.5 µM

$$$$
>  <COMPOUND>
CCCCN(CCCC)CCC(O)c1cc2ccc(C(F)(F)F)cc2c2cc(C(F)(F)F)ccc12 (configuration not stated)

>  <TGI>
18.3 µM

$$$$
>  <COMPOUND>
Cc1ccc(Nc2nc(C)c(C(/C=C/c3ccc4c(c3)OCO4)=N/Nc3ccc([N+](=O)[O-])cc3[N+](=O)[O-])s2)c([N+](=O)[O-])c1

>  <TGI>
> 100 µM

$$$$
>  <COMPOUND>
O=C1Nc2ccc(Br)cc2/C1=C/C(=O)c1ccccc1

>  <TGI>
50.8 µM

$$$$
>  <COMPOUND>
CCCCCCCCCCCCCCCCCc1nnc(N)o1

>  <TGI>
> 100 µM

$$$$
>  <COMPOUND>
Cc1nc(Nc2nc3ccccc3[nH]2)[nH]c(=O)c1CCO

>  <TGI>
> 100 µM

$$$$
>  <COMPOUND>
CSc1nc(C)c(CCCl)c(Cl)n1

>  <TGI>
> 100 µM

$$$$
>  <COMPOUND>
CCC(=O)c1c(C(F)(F)F)n([O-])c2ccccc2[n+]1=O

>  <TGI>
6.34 µM

$$$$
>  <COMPOUND>
CC(Cc1ccc2c(c1)OCO2)N(C)C(=O)C1=CCN(C)CC1 (configuration not stated)

>  <TGI>
> 100 µM

$$$$
>  <COMPOUND>
Nc1nc(NCCOCP(=O)(O)O)c(N)c(=O)[nH]1

>  <TGI>
> 100 µM

$$$$
>  <COMPOUND>
CCOC(=O)c1ccc(Nc2cnc3ccc(C(F)(F)F)cc3n2)cc1

>  <TGI>
34 µM

$$$$
>  <COMPOUND>
COC(=O)C1C(/C=C/c2ccoc2)ON2CCC[C@@H]12 (some centres not stated)

>  <TGI>
> 100 µM

$$$$
>  <COMPOUND>
c1cc(C[S+]2CCCC2)oc1C[S+]1CCCC1

>  <TGI>
> 100 µM

$$$$
>  <COMPOUND>
Oc1ccc(Cn2c(-c3ccc(O)cc3)nc3ccccc32)cc1

>  <TGI>
> 100 µM

$$$$
>  <COMPOUND>
CCN1C(=O)CS/C1=N\NC(=O)CSc1nc2ccccc2c(=O)n1CC

>  <TGI>
> 100 µM

$$$$
>  <COMPOUND>
O=C1COCCN1c1ccc(NCc2cn(C(=O)c3ccc(Cl)cc3)c3ccccc23)cc1

>  <TGI>
95.1 µM

$$$$
>  <COMPOUND>
Cc1cccc(N=C2NC(=O)C(CC(=O)Nc3ccccc3Cl)S2)c1 (configuration not stated)

>  <TGI>
> 100 µM

$$$$
>  <COMPOUND>
COc1cccc(C(=O)N[C@@H]2[C@H](O)[C@@H](CO)O[C@H]2n2cnc3c(N)ncnc32)c1

>  <TGI>
> 100 µM

$$$$
>  <COMPOUND>
CCSC(=O)C1(C)OC2CCCCC2C1=O (configuration not stated)

>  <TGI>
> 100 µM

$$$$
>  <COMPOUND>
c1ccc(CSC(SCc2ccccc2)c2ccc3c(c2)OCO3)cc1

>  <TGI>
> 10 µM

$$$$
>  <COMPOUND>
CC(=O)C1C(=O)C(=O)N(c2ccc(Br)cc2)C1=O (configuration not stated)

>  <TGI>
> 100 µM

$$$$
>  <COMPOUND>
O=C(O)CO/N=C1/C(c2c(O)[nH]c3ccccc23)=Nc2ccccc21

>  <TGI>
> 100 µM

$$$$
>  <COMPOUND>
Cc1[nH]c2ccccc2c1C1=CC(=O)N(c2ccccc2)C1=O

>  <TGI>
> 100 µM

$$$$
>  <COMPOUND>
C/C([O-])=C(/c1nc(-c2ccc([N+](=O)[O-])o2)no1)[n+]1cc(C)ccc1C

>  <TGI>
62.3 µM

$$$$
>  <COMPOUND>
CNC(=O)c1cncc(/C=C/c2c(Cl)cccc2Cl)c1

>  <TGI>
> 25 µM

$$$$
>  <COMPOUND>
O=C(O)CN=c1c2ccccc2n(O)c2ccccc12

>  <TGI>
> 100 µM

$$$$
>  <COMPOUND>
O=C(CC(=O)c1ccccc1)C(=O)NC12CC3CC(CC(C3)C1)C2

>  <TGI>
> 100 µM

$$$$
>  <COMPOUND>
COC(=O)Nc1nc2ccc(S(=O)(=O)c3ccc(NC(=O)Nc4cc(C(F)(F)F)ccc4F)cc3)cc2[nH]1

>  <TGI>
> 25 µM

$$$$
>  <COMPOUND>
CC(=O)NC1C(OCc2ccccc2)OC(CO)C(O)C1OCC(=O)N1CCCC1C(=O)NC(CCC(=O)NCCCCCNc1c2ccccc2nc2cccc([N+](=O)[O-])c12)C(N)=O (configuration not stated)

>  <TGI>
0.0966 µM

$$$$
>  <COMPOUND>
O=C(O)C1CC2CC(=O)C1C2 (configuration not stated)

>  <TGI>
> 100 µM

$$$$
>  <COMPOUND>
CCCOP(=S)(N1CC1)N1CC1

>  <TGI>
> 100 µM

$$$$
>  <COMPOUND>
COC(=O)C1=C(O)C(C(=O)OC)[C@@]2(O)[C@@H](C(=O)OC)CC[C@@H]1[C@@H]2C(=O)OC (some centres not stated)

>  <TGI>
75.5 µM

$$$$
>  <COMPOUND>
CN(C)c1ncnc2c1ccn2C1OC(CO)C(O)C1O (configuration not stated)

>  <TGI>
> 100 µM

$$$$
